study-target: T1, human GIP receptor (human) (UniProt P48546)
T1 sequence (looked up): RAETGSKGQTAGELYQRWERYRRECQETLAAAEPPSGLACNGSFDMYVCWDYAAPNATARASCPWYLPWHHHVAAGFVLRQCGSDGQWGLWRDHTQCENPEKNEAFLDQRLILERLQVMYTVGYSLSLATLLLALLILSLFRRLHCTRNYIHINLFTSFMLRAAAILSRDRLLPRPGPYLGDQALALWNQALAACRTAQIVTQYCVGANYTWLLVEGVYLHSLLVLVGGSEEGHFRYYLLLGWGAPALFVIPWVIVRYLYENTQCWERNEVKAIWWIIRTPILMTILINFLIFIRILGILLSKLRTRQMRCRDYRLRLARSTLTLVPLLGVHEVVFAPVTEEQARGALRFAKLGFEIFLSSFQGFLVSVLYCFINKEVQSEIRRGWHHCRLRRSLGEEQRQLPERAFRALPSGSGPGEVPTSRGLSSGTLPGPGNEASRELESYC
assay-method-text: cell-based or functional assay
outcome-measure: cAMP Rel EC50, nM (1% HSA) (nM)
Write the value in nM as a bare number.

I'd like to know its cAMP Rel EC50, nM (1% HSA). The binder in question is YXQGTFTSDFSXXLDKKAQXAFIEYLLEXGPSSGAPPPSGT (acylated lipid side chain; synthetic construct; SITE 2: note = 2-Aminoisobutyric Acid; SITE 12: note = L-ornithine; SITE 13: note = alpha-methyl-leucine; SITE 17: note = Lysine is chemically modified through conjugation of the epsilon-amino group of the Lysine side chain with (2-[2-(2-Amino-ethoxy)-ethoxy]-acetyl)-(gamma-Glu)) [Example 200] 13.7

Please give the result for YXQGTFTSDXSXXLDKKAQXAFIEXLIEGGPSSGAPPPSGSEE (Aib, 4Pal, Orn, Me4Pal, αMeY; acylated lysine; amide; synthetic construct; SITE 2: note = 2-Aminoisobutyric Acid; SITE 10: note = 3-(4-Pyridyl)-L-alanine; SITE 12: note = L-ornithine; SITE 13: note = alpha-methyl-leucine; SITE 17: note = Lysine is chemically modified through conjugation of the epsilon-amino group of the Lysine side chain with (gamma-Gl)) [Example 967] too. 39.5

Please give the result for YXQGTFTSDFSXXLDKKAQXAFIEYLLEAGPSSGAPPPSGT (not fully specified; acylated; synthetic construct; SITE 2: note = 2-Aminoisobutyric Acid; SITE 12: note = L-ornithine; SITE 13: note = alpha-methyl-leucine; SITE 17: note = Lysine is chemically modified through conjugation of the epsilon-amino group of the Lysine side chain with (gamma-Glu)3-CO-(CH2)16-CO2H; SITE 20: note = 2-Am) [Example 205] too. 24.4

Please give the result for YXQGTFTSDXSQXLDXKAQXAFIEXLIEGGPSSGAPPPSGSEE (non-natural residues, C18 diacid-(γGlu)2 acyl on K, C-terminal amide; synthetic construct; SITE 2: note = 2-Aminoisobutyric Acid; SITE 10: note = 3-(4-Pyridyl)-L-alanine; SITE 13: note = alpha-methyl-leucine; SITE 16: note = L-ornithine; SITE 17: note = Lysine is chemically modified through conjugation of the epsilon-amino group of the Lysine side chain with (gamma-Gl)) [Example 1043] too. 44.9

Please give the result for YXQGTXTSDYSIXLDKKAQXAFIEYLEEGGPSSGAPPPSEG (synthetic construct; SITE 2: note = 2-Aminoisobutyric Acid; SITE 6: note = alpha-methyl-L-phenylalanine; SITE 13: note = alpha-methyl-leucine; SITE 17: note = Lysine is chemically modified through conjugation of the epsilon-amino group of the Lysine side chain with (2-[2-(2-Amino-ethoxy)-ethoxy]-ace)) [Example 395] too. 6.69

Please give the result for YXQGTFTSDXSQXLDXKAQXAFIEYLIAGGPSSGAPPPSGSEE (non-natural residues; acylated Lys; C-terminal amide; synthetic construct; SITE 2: note = 2-Aminoisobutyric Acid; SITE 10: note = 3-(4-Pyridyl)-L-alanine; SITE 13: note = alpha-methyl-leucine; SITE 16: note = L-ornithine; SITE 17: note = Lysine is chemically modified through conjugation of the epsilon-amino group of the Lysine side chain with (gamma-Gl)) [Example 1035] too. 16

Please give the result for YXQGTFTSDXSXXLDKKAQXAFIEXLIEGGPSSGAPPPSGSE (acylated Lys (γGlu)2-C18 diacid; non-natural residues; C-terminal amide; synthetic construct; SITE 2: note = 2-Aminoisobutyric Acid; SITE 10: note = 3-(4-Pyridyl)-L-alanine; SITE 12: note = L-ornithine; SITE 13: note = alpha-methyl-leucine; SITE 17: note = Lysine is chemically modified through conjugation of the epsilon-amino group of the Lysine side chain with (gamma-Gl)) [Example 966] too. 35.9

Please give the result for YXQGTFTSDFSXXLDKKAQXAFIEYLLEXGPSSGEPPPSGS (synthetic construct; SITE 2: note = 2-Aminoisobutyric Acid; SITE 12: note = L-ornithine; SITE 13: note = alpha-methyl-leucine; SITE 17: note = Lysine is chemically modified through conjugation of the epsilon-amino group of the Lysine side chain with (2-[2-(2-Amino-ethoxy)-ethoxy]-acetyl)2-(gamma-Glu)) [Example 166] too. 21

Please give the result for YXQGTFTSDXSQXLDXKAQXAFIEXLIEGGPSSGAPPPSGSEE (not fully specified; non-natural residues; lipidated Lys; C-terminal amide; synthetic construct; SITE 2: note = 2-Aminoisobutyric Acid; SITE 10: note = 3-(4-Pyridyl)-L-alanine; SITE 13: note = alpha-methyl-leucine; SITE 16: note = L-ornithine; SITE 17: note = Lysine is chemically modified through conjugation of the epsilon-amino group of the Lysine side chain with (2-[2-(2-) [Example 1042] too. 84.8

Please give the result for YXQGTFTSDXSQXLDXKAQXEFIEXLLAGGPSSGAPPPSGSEE (Aib, 4Pal, αMeL, Orn, Me4Pal, αMeY; γGlu2-C18 diacid Lys; amide; synthetic construct; SITE 2: note = 2-Aminoisobutyric Acid; SITE 10: note = 3-(4-Pyridyl)-L-alanine; SITE 13: note = alpha-methyl-leucine; SITE 16: note = L-ornithine; SITE 17: note = Lysine is chemically modified through conjugation of the epsilon-amino group of the Lysine side chain with (gamma-Gl)) [Example 999] too. 10.4

Please give the result for YXQGTXTSDXXIXLDXKAQXEFIEXLVEGGPSSGEPPPSGSE (synthetic construct; SITE 2: note = 2-Aminoisobutyric Acid; SITE 6: note = alpha-methyl-2-fluoro-L-phenylalanine; SITE 10: note = 3-(4-Pyridyl)-L-alanine; SITE 11: note = alpha-methyl-L-serine; SITE 13: note = alpha-methyl-leucine; SITE 16: note = L-ornithine; SITE 17: note = Lysine is chemically mo) [Example 752] too. 1.74

Please give the result for HXQGTXTSDYSILLDKKAQXAFIEYLEEGGPSSGAPPPS (synthetic construct; SITE 2: note = 2-Aminoisobutyric Acid; SITE 6: note = alpha-methyl-2-fluoro-L-phenylalanine; SITE 17: note = Lysine is chemically modified through conjugation of the epsilon-amino group of the Lysine side chain with (gamma-Glu)2-CO-(CH2)16-CO2H; SITE 20: note = 2-Aminoisobutyric) [Example 426] too. 29.8

Please give the result for YXQGTFTSDFSXXLDKKAQXAFIEYLLEXGHSSGAPPPSGT (synthetic construct; SITE 2: note = 2-Aminoisobutyric Acid; SITE 12: note = L-ornithine; SITE 13: note = alpha-methyl-leucine; SITE 17: note = Lysine is chemically modified through conjugation of the epsilon-amino group of the Lysine side chain with (2-[2-(2-Amino-ethoxy)-ethoxy]-acetyl)2-(gamma-Glu)) [Example 182] too. 9.95

Please give the result for YXQGTFTSDFSXXLDKKAQXAFIEYLLAGGPSSGEPPPSGS (synthetic construct; SITE 2: note = 2-Aminoisobutyric Acid; SITE 12: note = L-ornithine; SITE 13: note = alpha-methyl-leucine; SITE 17: note = Lysine is chemically modified through conjugation of the epsilon-amino group of the Lysine side chain with (2-[2-(2-Amino-ethoxy)-ethoxy]-acetyl)-(gamma-Glu)) [Example 153] too. 16.8

Please give the result for YXQGTFTSDFSKXLDKKAQXAFIEYLIEXGESSGAPPPSGS (acylated; synthetic construct; SITE 2: note = 2-Aminoisobutyric Acid; SITE 13: note = alpha-methyl-leucine; SITE 17: note = Lysine is chemically modified through conjugation of the epsilon-amino group of the Lysine side chain with (2-[2-(2-Amino-ethoxy)-ethoxy]-acetyl)-(gamma-Glu)-CO-(CH2) 16-CO2H; SITE 20: n) [Example 216] too. 12

Please give the result for YXQGTXTSDXSIXLDKKAQXAFIEYLSEGGPSSGAPPPS (synthetic construct; SITE 2: note = 2-Aminoisobutyric Acid; SITE 6: note = alpha-methyl-2-fluoro-L-phenylalanine; SITE 10: note = 3-(4-Pyridyl)-L-alanine; SITE 13: note = alpha-methyl-leucine; SITE 17: note = Lysine is chemically modified through conjugation of the epsilon-amino group of the Lysine) [Example 446] too. 3.01

Please give the result for HXQGTXTSDYXIXLDXKAQXAFIEYLLEGGPSSGEPPPE (synthetic construct; SITE 2: note = 2-Aminoisobutyric Acid; SITE 6: note = alpha-methyl-2-fluoro-L-phenylalanine; SITE 11: note = alpha-methyl-L-serine; SITE 13: note = alpha-methyl-leucine; SITE 16: note = L-ornithine; SITE 17: note = Lysine is chemically modified through conjugation of the epsilon) [Example 381] too. 7.01

Please give the result for YXQGTFTSDFSXXLDKKAQXAFIEYLLEGGPSSGAPPPEGT (synthetic construct; SITE 2: note = 2-Aminoisobutyric Acid; SITE 12: note = L-ornithine; SITE 13: note = alpha-methyl-leucine; SITE 17: note = Lysine is chemically modified through conjugation of the epsilon-amino group of the Lysine side chain with (2-[2-(2-Amino-ethoxy)-ethoxy]-acetyl)-(gamma-Glu)) [Example 160] too. 44.4

Please give the result for YXQGTFTSDFSQXLDKKAQXAFIEYLLEXGESSGEPPPSGS (synthetic construct; SITE 2: note = 2-Aminoisobutyric Acid; SITE 13: note = alpha-methyl-leucine; SITE 17: note = Lysine is chemically modified through conjugation of the epsilon-amino group of the Lysine side chain with (2-[2-(2-Amino-ethoxy)-ethoxy]-acetyl)-(gamma-Glu)-CO-(CH2) 16-CO2H; SITE 20: n) [Example 788] too. 20.7

Please give the result for YXQGTFTSDXSRXLDKKAQXAFIEXLIEGGPSSGAPPPSGSEE (acylated lysine AEEA-γGlu-C18 diacid; non-natural residues; C-terminal amide; synthetic construct; SITE 2: note = 2-Aminoisobutyric Acid; SITE 10: note = 3-(4-Pyridyl)-L-alanine; SITE 13: note = alpha-methyl-leucine; SITE 17: note = Lysine is chemically modified through conjugation of the epsilon-amino group of the Lysine side chain with (2-[2-(2-Amino-ethoxy)-ethoxy]-acetyl)) [Example 956] too. 32.1

Please give the result for YXQGTXTSDXSIXLDKKAQXAFIEYLEEGGPSSGAPPPE (synthetic construct; SITE 2: note = 2-Aminoisobutyric Acid; SITE 6: note = alpha-methyl-2-fluoro-L-phenylalanine; SITE 10: note = 3-(4-Pyridyl)-L-alanine; SITE 13: note = alpha-methyl-leucine; SITE 17: note = Lysine is chemically modified through conjugation of the epsilon-amino group of the Lysine) [Example 445] too. 2.41

Please give the result for YXQGTFTSDXSXXLDXKAQXXFIEXLIAGGPSSGAPPPSGSEE (Lys acylated with (γGlu)2-C18 diacid; non-natural residues; C-amide; synthetic construct; SITE 2: note = 2-Aminoisobutyric Acid; SITE 10: note = 3-(4-Pyridyl)-L-alanine; SITE 12: note = L-ornithine; SITE 13: note = alpha-methyl-leucine; SITE 16: note = L-ornithine; SITE 17: note = Lysine is chemically modified through conjugation of the epsilon-amino group of the Lys) [Example 994] too. 30.8

Please give the result for YXQGTFTSDFSQXLDKKAQXAFIEWLLEGGPSSGAPPPEGS (synthetic construct; SITE 2: note = 2-Aminoisobutyric Acid; SITE 13: note = alpha-methyl-leucine; SITE 17: note = Lysine is chemically modified through conjugation of the epsilon-amino group of the Lysine side chain with (2-[2-(2-Amino-ethoxy)-ethoxy]-acetyl)-(gamma-Glu)-CO-(CH2) 16-CO2H; SITE 20: n) [Example 774] too. 32.8

Please give the result for YXQGTFTSDXSRXLDKKAQXAFIEXLIEGGPSSGAPPPSGS (non-natural residues, AEEA-γGlu-C18 diacid lysine acylation, C-terminal amide; synthetic construct; SITE 2: note = 2-Aminoisobutyric Acid; SITE 10: note = 3-(4-Pyridyl)-L-alanine; SITE 13: note = alpha-methyl-leucine; SITE 17: note = Lysine is chemically modified through conjugation of the epsilon-amino group of the Lysine side chain with (2-[2-(2-Amino-ethoxy)-ethoxy]-acetyl)) [Example 950] too. 18.1
